Give measured half-life at 1 µM for each item. Keep answers brief.
# experiment description: Stability testing of liver microsomes, monkey
# Type: in vitro ADME
# measurement parameters: pH 7.41; monkey liver microsomes
Number in min, nothing else.

# molecule CCc1cc(Nc2ncc(Cl)c(Nc3ccc(C)c(C)c3P(C)(C)=O)n2)c(OC)cc1N1CC2(CCN(C)CC2)C1 [Compound 24] ; its half-life at 1 µM = 50

So for CCc1cc(Nc2ncc(Cl)c(Nc3ccc(C)c(C)c3P(C)(C)=O)n2)c(OC)cc1N1CCC(N2CCN(C)CC2)CC1 [Comparative Compound A, reference compound] , the logged half-life at 1 µM turned out to be 26.7
